System: IL-17 production, human PBMC cells
Assay: IL-17 production assay using human PBMC
Format: cell-based
Reported Conditions: human PBMC stimulated by cytostim for 3 days, IL-17 ELISA of supernatant
Property: log10 of IC50 (log10 of the value in µM)
# values: log10(IC50), units µM

Please review the following examples before continuing.
Compound	Tgt	log10 of IC50
NC(=O)CC(c1ccc(S(=O)(=O)CC2CC2)cc1)c1nc2cc(-c3ccccc3OC(F)F)c(Cl)cc2[nH]1 (single isomer, unassigned) [the longer retention time of 152 and 153]	IL-17 production, human PBMC cells	-2.00
CCS(=O)(=O)c1ccc(C(CCO)c2nc3c(Cl)c(N4CCC(F)(F)CC4)c(Cl)cc3[nH]2)cc1 (single isomer, unassigned) [the longer retention time of 139 and 140]	IL-17 production, human PBMC cells	-1.59
CCS(=O)(=O)c1ccc(C(CC(N)=O)c2nc3c(Cl)c(N4CCC(F)(F)CC4)c(Cl)cc3[nH]2)cc1 (single isomer, unassigned) [the longer retention time of 146 and 147]	IL-17 production, human PBMC cells	-1.85
CCS(=O)(=O)c1ccc(C(CCO)c2nc3c(Cl)c(N4CCC(F)(F)CC4)c(Cl)cc3[nH]2)cc1 (single isomer, unassigned) [the shorter retention time of 139 and 140]	IL-17 production, human PBMC cells	-0.67

Reported log10 of IC50 of O=S(=O)(CC1CC1)c1ccc(C(CCO)c2nc3cc(-c4ccccc4OC(F)F)c(Cl)cc3[nH]2)cc1 (single isomer, unassigned) [the shorter retention time of 155 and 156] : -0.87

====

Tgt: RORγ LBD-GST tagged (Homo sapiens, UniProt P51449)
Construct: RORγ LBD-GST tagged (Cat No. RORC-114H, Creative Biomart); purchased Creative Biomart RORC-114H
Sequence (P51449 269-508 limits assumed): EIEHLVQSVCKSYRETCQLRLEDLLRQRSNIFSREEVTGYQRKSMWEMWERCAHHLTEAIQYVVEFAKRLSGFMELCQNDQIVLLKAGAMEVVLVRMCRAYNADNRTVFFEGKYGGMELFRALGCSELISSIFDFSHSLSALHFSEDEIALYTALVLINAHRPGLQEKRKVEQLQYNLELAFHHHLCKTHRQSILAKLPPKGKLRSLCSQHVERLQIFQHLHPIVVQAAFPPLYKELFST
Assay: LanthaScreen TR-FRET RORγ coactivator assay
Assay type: biochemical
Reported Conditions: Fluorescein-D22 coactivator peptide, 1 hour room temperature
Catalogue of IC50 readings, one per entry.
Field: numeric (µM). Do not append units.

>>> print(df.to_string())
                                   compound                                       tgt  measured
0  NC(=O)CC(c1ccc(S(=O)(=O)CC2CC2)cc1)c1nc2cc(Cl)c(N3CCC(F)(F)CC3)c(Cl)c2[nH]1 (single isomer, unassigned)  RORγ LBD-GST tagged (Homo sapiens, UniProt P51449)     0.014
1  CCS(=O)(=O)c1ccc(Cc2nc3c(Cl)c(-c4ccccc4OCC(F)(F)F)c(Cl)cc3[nH]2)cc1  RORγ LBD-GST tagged (Homo sapiens, UniProt P51449)      0.01
2  O=S(=O)(CC1CC1)c1ccc(Cc2nc3c(Cl)c(-c4ccccc4OC(F)(F)F)c(Cl)cc3[nH]2)c(F)c1  RORγ LBD-GST tagged (Homo sapiens, UniProt P51449)     0.031

Now consider a different compound.
Given item "O=S(=O)(CC1CC1)c1ccc(Cc2nc3c(Cl)c(-c4ccccc4OC(F)(F)F)c(Cl)cc3[nH]2)cc1" , the value recorded as its IC50 is 0.002

====

IC50 values for the molecules below.
System: IL-17 production, human PBMC cells
Assay: IL-17 production assay using human PBMC
Format: cell-based
Reported Conditions: Homo sapiens, PBMC, 72 h, human PBMC stimulated by cytostim for 3 days, IL-17 ELISA of supernatant
Give the value, in units of µM, as a plain number.

Here is how some molecules turned out for IC50.
                                   molecule  measured
0  CCS(=O)(=O)c1ccc(C(CO)c2nc3c(Cl)c(-c4ccccc4OCCOC)c(Cl)cc3[nH]2)cc1 (stereo not shown)     0.056
1  CCS(=O)(=O)c1ccc(C(CO)c2nc3c(Cl)c(-c4ccccc4OC(F)F)c(Cl)cc3[nH]2)c(F)c1 (stereo not shown)     0.013
2  O=S(=O)(CC1CC1)c1ccc(C(CCO)c2nc3cc(Cl)c(N4CCC(F)(F)CC4)c(Cl)c3[nH]2)cc1 (stereo not shown) [Example 157]     0.022

--- query ---
Entry NCC(c1ccc(S(=O)(=O)CC2CC2)cc1)c1nc2ccc(-c3ccccc3OC(F)F)c(Cl)c2[nH]1 (stereo not shown) — recorded IC50 = 0.091

====

Tgt: RORγ LBD-GST tagged (Homo sapiens, UniProt P51449)
Construct: RORγ LBD-GST tagged (Cat No. RORC-114H, Creative Biomart); purchased Creative Biomart RORC-114H
Assay: LanthaScreen TR-FRET RORγ coactivator assay
Format: biochemical
Reported Conditions: Fluorescein-D22 coactivator peptide, 1 hour room temperature
Property: IC50 (µM)
Output spec: scalar in µM, unitless text.

                                   compound                                       tgt  measured
0  CCS(=O)(=O)c1ccc(C(O)c2nc3c(Cl)c(-c4ccccc4OC(F)(F)F)c(Cl)cc3[nH]2)c(Cl)c1 (stereo not shown)  RORγ LBD-GST tagged (Homo sapiens, UniProt P51449)     0.162

Item N#Cc1ccccc1-c1c(Cl)cc2[nH]c(C(O)c3ccc(S(=O)(=O)CC4CC4)cc3)nc2c1Cl (stereo not shown) ; assay system RORγ LBD-GST tagged (Homo sapiens, UniProt P51449); IC50 reported as 0.001

Case O=S(=O)(CC1CC1)c1ccc(C(CO)c2nc3c(Cl)c(-c4ccccc4OC(F)(F)F)c(Cl)cc3[nH]2)c(F)c1 (stereo not shown) , RORγ LBD-GST tagged (Homo sapiens, UniProt P51449), IC50 recorded as 0.035

Log: RORγ LBD-GST tagged (Homo sapiens, UniProt P51449), compound "O=S(=O)(CC1CC1)c1ccc(Cc2nc3c(Cl)c(-c4ccccc4Cl)c(Cl)cc3[nH]2)cc1" , IC50 = 0.075

====

Items are presented alongside their recorded IC50.
Tgt: RORγ LBD-GST tagged (Homo sapiens, UniProt P51449)
Construct: RORγ LBD-GST tagged (Cat No. RORC-114H, Creative Biomart); purchased Creative Biomart RORC-114H
Assay: LanthaScreen TR-FRET RORγ coactivator assay
Assay type: biochemical
Reported Conditions: Fluorescein-D22 coactivator peptide, 1 hour room temperature
The response must be a number in µM with no trailing unit.

Compound	Property	Measured
CCS(=O)(=O)c1ccc(C(CO)c2nc3c(Cl)c(-c4ccccc4OC)c(Cl)cc3[nH]2)cc1 (stereo not shown)	IC50	0.003

Item: O=S(=O)(CC1CC1)c1ccc(C(CCO)c2nc3cc(Cl)c(-c4ccccc4OC(F)F)cc3[nH]2)cc1 (stereo not shown) | IC50: 0.013

GET /value?item= COCCS(=O)(=O)c1ccc(C(CO)c2nc3c(Cl)c(-c4ccccc4OC(F)(F)F)c(Cl)cc3[nH]2)cc1 (stereo not shown) &field=IC50 returns 0.367

Record NC(=O)CC(c1ccc(S(=O)(=O)CC2CC2)cc1)c1nc2cc(-c3ccccc3OC(F)F)c(Cl)cc2[nH]1 (single isomer, unassigned) [the longer retention time of 152 and 153] , field IC50: 0.013

====

Tgt: RORγ LBD-GST tagged (Homo sapiens, UniProt P51449)
Construct: RORγ LBD-GST tagged (Cat No. RORC-114H, Creative Biomart); purchased Creative Biomart RORC-114H
Assay: LanthaScreen TR-FRET RORγ coactivator assay
Type: biochemical
Reported Conditions: Fluorescein-D22 coactivator peptide, 1 hour room temperature
# reported IC50; entries follow
Give just the numeric value; µM need not be written.

A selection of reference data follows.
Compound	IC50 / µM
CCS(=O)(=O)c1ccc(Cc2nc3c(F)c(-c4ccccc4C(F)(F)F)c(F)cc3[nH]2)cc1	0.06
O=S(=O)(CC(F)(F)F)c1ccc(Cc2nc3c(Cl)c(-c4ccccc4OC(F)(F)F)c(Cl)cc3[nH]2)cc1	0.433
NC(=O)CC(c1ccc(S(=O)(=O)CC2CC2)cc1)c1nc2cc(Cl)c(N3CCC(F)(F)CC3)c(Cl)c2[nH]1 (single isomer, unassigned) [the longer retention time of 162 and 163]	0.31

// recorded IC50 for CCS(=O)(=O)c1ccc(C(CO)c2nc3c(Cl)c(-c4ccccc4C#N)c(Cl)cc3[nH]2)cc1 (centres unmarked) : 0.219

For this compound ( CCS(=O)(=O)c1ccc(C(NC(C)=O)c2nc3c(Cl)c(-c4ccccc4OC(F)F)c(Cl)cc3[nH]2)cc1 (centres unmarked) ), measured IC50 is 0.083

====

Tested on: IL-17 production, human PBMC cells
Assay: IL-17 production assay using human PBMC
Type: cell-based
Reported Conditions: Homo sapiens, PBMC, 72 h, human PBMC stimulated by cytostim for 3 days, IL-17 ELISA of supernatant
List of log10 of IC50 values.
All values: base-10 log of IC50 in µM.

Worked cases, answers included:
                                   molecule  measured
0  CCS(=O)(=O)c1ccc(C(CO)c2nc3cc(Cl)c(N4CCC(F)(F)CC4)c(Cl)c3[nH]2)cc1 (stereo not drawn) [Example 126]     -2.10
1  CCS(=O)(=O)c1ccc(C(CO)c2nc3c(Cl)c(-c4ccccc4OC(F)(F)F)c(Cl)cc3[nH]2)cc1 (stereo not drawn) [Example 4]     -1.28
2  CCS(=O)(=O)c1ccc(Cc2nc3c(Cl)c(-c4ccccc4OCC(F)(F)F)c(Cl)cc3[nH]2)cc1 [Example 31]     -1.96
3  O=S(=O)(CC1CC1)c1ccc(C(CCO)c2nc3cc(Cl)c(-c4ccccc4OC(F)F)c(Cl)c3[nH]2)cc1 (stereo not drawn) [Example 159]     -2.00
4  CCS(=O)(=O)c1ccc(C(O)c2nc3c(Cl)c(-c4ccccc4OCCOC)c(Cl)cc3[nH]2)cc1 (stereo not drawn) [Example 21]     -0.34

Consider CCS(=O)(=O)c1ccc(C(O)c2nc3c(Cl)c(-c4ccccc4OC(F)(F)F)c(Cl)cc3[nH]2)cc1 (stereo not drawn) [Example 5] . Its measured log10 of IC50 is -1.60
